- target: human V1a receptor (Homo sapiens)
- assay overview: Cellular in vitro test for determination of the vasopressin receptor activity (aequorin luminescence, CHO cells), human V1a
- study conditions: cell line transfected with the human V1a receptor, antagonism of [Arg8]-vasopressin, read-out: IC50 hV1a
measurement kind: IC50 (nM)

I: COc1cc(Cl)ccc1-c1nn(CC(=O)NCc2ccccc2C(F)(F)F)c(=O)n1Cc1ccccc1F
II: CC(C)(NC(=O)Cn1nc(-c2ccc(Cl)cc2)n(Cc2cccc(C(=O)O)c2)c1=O)c1cccc(C(F)(F)F)c1
III: CC(C)(NC(=O)Cn1nc(-c2ccc(Cl)cc2Cl)n(C2CC2)c1=O)c1cccc(C(F)(F)F)c1
IV: O=C(Cn1cc(-c2ccc(Cl)cc2)n(CC2CC2)c1=O)NCCc1ccccc1C(F)(F)F
Ask: Ranking criterion: IC50, increasing numeric value. Items: as listed above. Give your ranking as a list of the labels in the requested order.
Reply: IV, I, II, III

###

- target: human V1a receptor (Homo sapiens, UniProt P37288)
- Sequence (P37288 whole entry): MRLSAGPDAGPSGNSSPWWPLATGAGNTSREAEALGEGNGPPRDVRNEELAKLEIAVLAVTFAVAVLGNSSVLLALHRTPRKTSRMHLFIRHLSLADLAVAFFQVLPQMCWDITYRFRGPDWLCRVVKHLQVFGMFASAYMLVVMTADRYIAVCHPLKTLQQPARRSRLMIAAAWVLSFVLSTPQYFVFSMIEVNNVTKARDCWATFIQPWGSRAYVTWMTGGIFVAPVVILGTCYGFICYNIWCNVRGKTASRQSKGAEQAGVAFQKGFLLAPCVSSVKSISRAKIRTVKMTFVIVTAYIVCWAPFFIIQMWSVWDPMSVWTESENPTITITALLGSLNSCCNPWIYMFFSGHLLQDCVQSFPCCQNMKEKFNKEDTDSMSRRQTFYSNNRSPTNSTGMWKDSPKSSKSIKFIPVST
- assay overview: Cellular in vitro test for determination of the vasopressin receptor activity (aequorin luminescence, CHO cells), human V1a
- study conditions: cell line transfected with the human V1a receptor, antagonism of [Arg8]-vasopressin, read-out: IC50 hV1a
- Excerpt: B-1. Cellular In Vitro Test for Determination of the Vasopressin Receptor Activity The identification of agonists and antagonists of the V1a- and V2-vasopressin receptors in man and the rat and the quantification of the activity of the compounds according to the invention are effected by means of recombinant cell lines. […]
measurement kind: IC50 (nM)

compound string: O=C(Cn1nc(-c2ccc(Cl)cc2)n(C2CC2)c1=O)NCC1(c2ccccc2F)CCCC1
target: human V1a receptor (Homo sapiens, UniProt P37288)
reported: 93

1: CCn1c(-c2ccc(Cl)cc2)nn(CC(=O)NCc2ccccc2C(F)(F)F)c1=O
2: COc1cc(Cl)ccc1-c1nn(CC(=O)NC(C)(C)c2cccc(C(F)(F)F)c2)c(=O)n1Cc1cccc(F)c1
Ask: Which of these two has the smaller recorded IC50: 1 or 2 ? State the label of the item chosen.
Reply: 1
(1: 94 nM, 2: 157 nM)

###

- target: human V1a receptor (Homo sapiens, UniProt P37288)
- assay overview: Cellular in vitro test for determination of the vasopressin receptor activity (aequorin luminescence, CHO cells), human V1a
- study conditions: cell line transfected with the human V1a receptor, antagonism of [Arg8]-vasopressin, read-out: IC50 hV1a
pIC50: −log10 of the molar value.
measurement kind: pIC50

See these solved cases before continuing.
molecule: COc1ccc(Cn2c(-c3ccc(Cl)cc3)nn(CC(=O)NCc3cccc(C(F)(F)F)c3)c2=O)cc1 [Example 153]
pIC50: 7.38

molecule: CC(C)Cn1c(-c2ccccc2-c2ccccc2)nn(CC(=O)NCc2cccc(C(F)(F)F)c2)c1=O [Example 151]
pIC50: 5.47

molecule: CC(C)(NC(=O)Cn1nc(-c2ccc(Cl)cc2)n(CC(N)=O)c1=O)c1cccc(C(F)(F)F)c1 [Example 476]
pIC50: 5.91

molecule: CC(NC(=O)Cn1nc(-c2ccc(Cl)cc2)n(C2CC2)c1=O)c1ccccc1C(F)(F)F (stereo not drawn) [Example 28]
pIC50: 7.52

I: COC(=O)[C@@H](Cc1ccccc1C(F)(F)F)NC(=O)Cn1nc(-c2ccc(Cl)cc2)n(C2CC2)c1=O [Example 321]
II: CC(=O)Cn1c(-c2ccc(Cl)cc2)nn(CC(=O)NCc2cccc(C(F)(F)F)c2)c1=O [Example 415]
Ask: Endpoint returns the identifier whose pIC50 is numerically larger, either I or II . Record your answer as the label of the chosen record.
Reply: I
